- subject_of_test: Cytochrome P450 2C19 (Homo sapiens)
- test_method_notes: blockers of cytochrome P450 2C19 activity – biochemical, luminescence, ADME assay, primary screen (AID 778);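 note: plate controls were negative control wells for no effect and 2.5 mM tranylcypromine positive control for full effect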
- conditions_used: CYP2C19 Supersomes, luciferin-H EGE luminescence, 30 min; at 5 µM; stronger effect = higher value
About 20,000 (21%) of roughly 96,000 compounds were called active. These entries were drawn from the full list.
recorded_metric: inhibition (%)

- compound: "Cc1ccc(Cn2nnc3c(=O)n(CC(=O)N4CCCCC4)cnc32)cc1"
  recorded_metric: "inhibition"
  unit_descriptor: "%"
  assay_result: 34
- compound: "CS(=O)(=O)N1CCN(c2cccc(Cl)n2)CC1"
  recorded_metric: "inhibition"
  unit_descriptor: "%"
  assay_result: 46.3
- compound: "CCC(C)(C(=O)NC1CCCCC1)N(C)C(=O)c1ccc2c(c1)OCO2 (stereo unspecified)"
  recorded_metric: "inhibition"
  unit_descriptor: "%"
  assay_result: -2.6
- compound: "COc1ccc(N2CC(C)Cn3c2nc2c3c(=O)n(Cc3ccccc3F)c(=O)n2C)c(OC)c1 (stereo unspecified)"
  recorded_metric: "inhibition"
  unit_descriptor: "%"
  assay_result: -10.2
- compound: "CCc1nc(N2CCN(c3nc(C)cc(C)n3)CC2)c2oc3ccccc3c2n1"
  recorded_metric: "inhibition"
  unit_descriptor: "%"
  assay_result: 8.3
- compound: "COc1ccc(N2C(=O)C3CCCN3C2c2cccs2)cc1 (stereo unspecified)"
  recorded_metric: "inhibition"
  unit_descriptor: "%"
  assay_result: 29.5
- compound: "Cc1oc2nc(SCC(=O)NCc3cccnc3)nc(N)c2c1C"
  recorded_metric: "inhibition"
  unit_descriptor: "%"
  assay_result: 8
- compound: "Clc1ccc(C=NC23CN4CN(CN(C4)C2)C3)cc1"
  recorded_metric: "inhibition"
  unit_descriptor: "%"
  assay_result: -2.3
- compound: "CCOC(=O)c1sc(/N=C/Nc2nc(C)c(C(=O)OCC)s2)nc1C"
  recorded_metric: "inhibition"
  unit_descriptor: "%"
  assay_result: 7.2
- compound: "CCOC(=O)CCc1c(C)c2ccc(OCc3nn[nH]n3)c(C)c2oc1=O"
  recorded_metric: "inhibition"
  unit_descriptor: "%"
  assay_result: 0
- compound: "CSc1nnc(-c2ccncc2)n1CCCN1CCCC1=O"
  recorded_metric: "inhibition"
  unit_descriptor: "%"
  assay_result: -0.2

###

Items are presented alongside their recorded inhibition.
- subject_of_test: Cytochrome P450 2C19 (Homo sapiens)
- test_method_notes: blockers of cytochrome P450 2C19 activity – biochemical, luminescence, ADME assay, primary screen (AID 778);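 note: plate controls were negative control wells for no effect and 2.5 mM tranylcypromine positive control for full effect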
- conditions_used: CYP2C19 Supersomes, luciferin-H EGE luminescence, 30 min; at 5 µM; stronger effect = higher value
The campaign covered roughly 96,000 compounds. About 20,000 (21%) were called active. A selection follows.

- compound: "Cc1ccc(OCC(=O)N/N=C/c2ccncc2)cc1"
  unit_descriptor: "%"
  inhibition: 96.3
- compound: "CC(C)(C)c1csc(NC2=NS(=O)(=O)c3ccccc32)n1"
  unit_descriptor: "%"
  inhibition: 0.4
- compound: "CC(C)(C)c1ccc(OC2=CS(=O)(=O)c3ccccc32)cc1"
  unit_descriptor: "%"
  inhibition: 65.2
- compound: "CCOc1ccc2nc(N3CCCN(C(=O)Nc4ccccc4C)CC3)c(C#N)cc2c1"
  unit_descriptor: "%"
  inhibition: 89.4
- compound: "C=CCn1c(=N)n(CC(O)COc2ccc(OC)cc2)c2ccccc21 (stereo not given)"
  unit_descriptor: "%"
  inhibition: 12.4
- compound: "CC(C)N(C(=O)COC(=O)c1ccccc1C(=O)N1CCN(c2ccc(F)cc2)CC1)C(C)C"
  unit_descriptor: "%"
  inhibition: 44.2
- compound: "COC(=O)[C@H](C(C)C)n1c(C)c(C(C)=O)c(C(C)=O)c1C"
  unit_descriptor: "%"
  inhibition: 6.6
- compound: "O=C(c1ccccc1)N1CCN(C(=O)N2CCCCC2)CC1"
  unit_descriptor: "%"
  inhibition: 39.7
- compound: "Cc1sc2c(c1C)c(=O)n(-c1ccccc1)c1nncn21"
  unit_descriptor: "%"
  inhibition: -7.8
- compound: "O=C(Nc1ccc(NC(=O)c2cccs2)cn1)c1ccco1"
  unit_descriptor: "%"
  inhibition: 17.3
- compound: "COc1ccc(S(=O)(=O)NC2(C(F)(F)F)N=C3SCCN3C2=O)cc1 (stereo not given)"
  unit_descriptor: "%"
  inhibition: -1.5
- compound: "COc1ccc(CCn2c(NCCCN3CCOCC3)nc3c2c(=O)[nH]c(=O)n3C)cc1"
  unit_descriptor: "%"
  inhibition: 25.2
- compound: "Cc1ccccc1CN1CCN(C(=O)c2cccc(F)c2)CC1"
  unit_descriptor: "%"
  inhibition: 98.4
- compound: "Cc1ccc(OCC(=O)Nc2ccc(-c3nc4ncccc4o3)cc2)cc1"
  unit_descriptor: "%"
  inhibition: 3.2
- compound: "Cc1nc2c(-c3ccc(F)cc3)c(C)nn2c(C)c1CCC(=O)N1CCN(c2ccccn2)CC1"
  unit_descriptor: "%"
  inhibition: 54.1
- compound: "COc1cc(OC)c(NC(=O)c2ccc(Br)o2)cc1Cl"
  unit_descriptor: "%"
  inhibition: 79.4
- compound: "CCC(CC)C(=O)Nc1cccc(C(=O)N2CCCC2)c1"
  unit_descriptor: "%"
  inhibition: 15.4
- compound: "COc1ccc(N2CCN(Cc3ccc(Br)s3)CC2)cc1"
  unit_descriptor: "%"
  inhibition: 96.1
- compound: "O=C(c1ccccc1)c1cccn1CC(=O)N1CCN(c2ccc(F)cc2)CC1"
  unit_descriptor: "%"
  inhibition: 33.3
- compound: "NC(=O)C1CCN(C2OC(=O)c3ccccc32)CC1 (stereo not given)"
  unit_descriptor: "%"
  inhibition: -2
- compound: "CCOC(=O)C1(Cc2ccc(O)cc2)NC(c2ccccc2F)C2C(=O)N(C)C(=O)C21 (stereo not given)"
  unit_descriptor: "%"
  inhibition: -4.2
- compound: "CCCNC(=O)c1ccc(Cl)c(Cl)c1"
  unit_descriptor: "%"
  inhibition: -2.2
- compound: "CCOC(=O)c1ccn(-c2nc(-c3ccco3)cc(C(F)(F)F)n2)n1"
  unit_descriptor: "%"
  inhibition: 9.7
- compound: "Cc1ccc2c(c1)N(CC(=O)N1CCCc3ccccc31)C(=O)C(C)O2 (stereo not given)"
  unit_descriptor: "%"
  inhibition: 34.4
- compound: "CCOc1ccc(NC(=O)C2CC(=O)N=C(N)S2)cc1 (stereo not given)"
  unit_descriptor: "%"
  inhibition: -0.4
- compound: "COc1ccc(/C=C2\\CCCC3C2=NN(C(=O)c2scnc2C)C3c2ccc(OC)cc2)cc1 (stereo not given)"
  unit_descriptor: "%"
  inhibition: 32.7
- compound: "CS(=O)(=O)c1ccc2c(c1)SC1=NC(=O)/C(=C/c3ccco3)C(=N)N12"
  unit_descriptor: "%"
  inhibition: 8.6
- compound: "O=C(c1ccccc1-c1ccccc1)N1CCOCC1"
  unit_descriptor: "%"
  inhibition: 10.3
- compound: "CC(=O)Nc1nc(C)c(Cc2ccccc2)c(=O)[nH]1"
  unit_descriptor: "%"
  inhibition: 6.3
- compound: "CN(Cc1ccccc1)C(=O)CCNC(=O)Cn1cnc2ccccc2c1=O"
  unit_descriptor: "%"
  inhibition: -11.7
- compound: "CCCc1nc(N2CCN(C)CC2)c2sc(=S)n(-c3ccccc3)c2n1"
  unit_descriptor: "%"
  inhibition: 4.4
- compound: "O=C(Cn1cc(-c2nnnn2-c2ccc(Cl)cc2)c(=O)c2ccccc21)c1ccccc1"
  unit_descriptor: "%"
  inhibition: -16.7
- compound: "Cc1cccc2cc(C#N)c(N3CCCC3)nc12"
  unit_descriptor: "%"
  inhibition: 1.4
- compound: "O=C1N=C(N2CCCC2)S/C1=C\\c1cccc(Br)c1"
  unit_descriptor: "%"
  inhibition: 58.2
- compound: "Cc1cccc(NC(=O)c2cc(N3C(=O)CCC3=O)ccc2Cl)n1"
  unit_descriptor: "%"
  inhibition: 14.7
- compound: "CC(c1ccccc1)n1c(NCCCn2ccnc2)nc2c1c(=O)[nH]c(=O)n2C (stereo not given)"
  unit_descriptor: "%"
  inhibition: 55.9
- compound: "CCN1CCN(c2c(Cl)cccc2NC(=O)c2ccc(Br)o2)CC1"
  unit_descriptor: "%"
  inhibition: 16
- compound: "Fc1ccc(N2CCN(Cc3cnc(Oc4ccc(Br)cc4)s3)CC2)cc1"
  unit_descriptor: "%"
  inhibition: 2.8
- compound: "O=C(c1cccc(C(=O)N2CCN(c3ccc(F)cc3)CC2)c1)N1CCN(c2ccc(F)cc2)CC1"
  unit_descriptor: "%"
  inhibition: 81.8
- compound: "Cc1ccsc1/C=C1\\SC(N2CCOCC2)=NC1=O"
  unit_descriptor: "%"
  inhibition: 29
- compound: "CC(=O)C1C(c2cccc(Oc3ccccc3)c2)NC(=O)NC1(O)C(F)(F)F (stereo not given)"
  unit_descriptor: "%"
  inhibition: 24.4
- compound: "O=C(NC1=NCCS1)c1ccc(Cl)s1"
  unit_descriptor: "%"
  inhibition: 22.5
- compound: "CCOc1ccc(CN2CCCN(C)CC2)cc1"
  unit_descriptor: "%"
  inhibition: -4.6
- compound: "Cc1cccc(C(=O)N2CCCN(C(=O)c3cccc(C)c3)CC2)c1"
  unit_descriptor: "%"
  inhibition: 90.5
- compound: "CCCN1CCN(C(=O)Cn2ncc3ccccc32)CC1"
  unit_descriptor: "%"
  inhibition: 12.6
